System: U-251
PROTOCOL TEXT: NCI tumour cell line growth inhibition, 48 h
The source made the active and inactive calls. Rule as the data show it: active = GI50 up to about 1.1 µM and inactive = higher. Square brackets hold non-standard residues; d marks the D form. Peptide text beside a SMILES is read from it. Ac5c = NC1(C(=O)O)CCCC1
Outcome field: choose from label 1 = active, label 0 = inactive

See these solved cases before continuing.
COMPOUND: Cc1cc(Cl)ccc1NC(=O)CCCC(=O)C1CCCC1=O (centres undefined)
ASSAY TARGET: U-251
CLASSIFICATION: label 0
//
COMPOUND: O=C(O)CC(O)(C(=O)O)C(O)C(=O)O (centres undefined)
ASSAY TARGET: U-251
CLASSIFICATION: label 0
//
COMPOUND: Oc1nc2nnc(COc3ccc(Cl)cc3Cl)n2nc1Cc1ccccc1
ASSAY TARGET: U-251
CLASSIFICATION: label 0

Tell me the assay call for CC1(C)C2CC3C4CC5(Nc6ccccc6C5N41)[C@]3(C)CC2=O (some centres undefined) please.
label 0

I'd appreciate the recorded outcome for "COC(=O)/C=C\C(C#N)(C#N)/N=C/c1ccc(Br)s1" from this test.
label 0

Returns: the outcome recorded for NCC(=O)NC1(C(=O)O)CCCC1 (H-Gly-[Ac5c]-OH) in this assay.
label 0

What classification did "O=C(Cc1nc2ccccc2c(=O)n1-c1c(Cl)cccc1Cl)c1ccncc1" end up with in this test?
label 0

###

Test system: SR
PROTOCOL TEXT: NCI tumour cell line growth inhibition, 48 h
The source made the active and inactive calls. Cut-off read from the data, not from the text of the source: active = GI50 up to about 1.1 µM and inactive = higher.
Could you please report measured GI50 for the items listed next?

MOLECULE: O=c1c2cccnc2[nH]c2ccc3cn[nH]c3c12
RECORDED ENDPOINT: GI50
MEAS VALUE: 3.29 µM (inactive)
//
MOLECULE: CCOC(=O)c1c(-c2ccc(OC)cc2)c(C#N)c(=S)n(C2OC(CO)C(O)C(O)C2O)c1-c1ccccc1 (stereo not given)
RECORDED ENDPOINT: GI50
MEAS VALUE: 54.7 µM (inactive)
//
MOLECULE: Cc1cc(O)c(C(=O)CC2(O)C(=O)Nc3c(Cl)cc(Cl)cc32)c(=O)o1 (stereo not given)
RECORDED ENDPOINT: GI50
MEAS VALUE: > 100 µM (inactive)
//
MOLECULE: Cc1ccccc1OC(C)C(=O)NN1C(=O)CSC1c1ccc(Cl)cc1 (stereo not given)
RECORDED ENDPOINT: GI50
MEAS VALUE: 5.47 µM (inactive)
//
MOLECULE: O=C1C[C@@]23CCC4(CC2CCC[C@H]3O1)OCCO4 (stereo not given in full)
RECORDED ENDPOINT: GI50
MEAS VALUE: > 100 µM (inactive)

Value sought for every listed molecule: GI50.
1. CCCCCCCCOCC(O)COC(=O)CCCCCCC (stereo not given)
2. CN(C)/C=C/c1nnnn1-c1ccc(I)cc1
3. COC(CN(C(=O)c1ccccc1)C1CCC2(SCCS2)c2[nH]c3ccccc3c21)OC (stereo not given)
4. O=C(O)CCS/C(=C\C(SCCC(=O)O)c1ccc(Cl)cc1)c1ccc(Cl)cc1 (stereo not given)
5. CCOC(=O)n1ccc2c(C(=O)OC)c(C(=O)OC)cc(/C(=C/C(=O)OC)C(=O)OC)c21

17.4 µM (inactive)
16.4 µM (inactive)
30.4 µM (inactive)
29.4 µM (inactive)
79.8 µM (inactive)

###

Test system: HCT-15
PROTOCOL TEXT: NCI tumour cell line growth inhibition, 48 h
Give GI50 for every item shown.

COMPOUND: CCOC(=O)C1=C(C(C)=O)CSC(c2ccccc2)=N1
ASSAY TARGET: HCT-15
GI50: > 100 µM
//
COMPOUND: CC(C)(C)CC(C)(C)c1cc(O)c(O)c(CN2CCCCC2)c1
ASSAY TARGET: HCT-15
GI50: 4.01 µM
//
COMPOUND: O=C(c1ccco1)c1ccccc1C(=O)c1ccco1
ASSAY TARGET: HCT-15
GI50: > 100 µM
//
COMPOUND: O=C1c2ccccc2C2(O)NC(=S)N(c3ccccc3)C12O (stereo not drawn)
ASSAY TARGET: HCT-15
GI50: > 100 µM
//
COMPOUND: CC(=O)OCC1OC(N2C(=O)C(=O)c3cc(C)ccc32)C(OC(C)=O)C(OC(C)=O)C1OC(C)=O (stereo not drawn)
ASSAY TARGET: HCT-15
GI50: 52.8 µM
//
COMPOUND: C/C(=N\OCC(O)CNC(C)C)c1ccc2c(c1)NC(=O)CS2 (stereo not drawn)
ASSAY TARGET: HCT-15
GI50: > 100 µM
//
COMPOUND: Oc1cc(-c2ccc(Oc3ccccc3)cc2)nc2cc3c(cc12)OCO3
ASSAY TARGET: HCT-15
GI50: > 100 µM
//
COMPOUND: O=C1C2C3CCC(C2C(=O)N1CO)C1C2C(=O)N(CO)C(=O)C2C31 (stereo not drawn)
ASSAY TARGET: HCT-15
GI50: 26.5 µM

# per-item lookup of GI50; items listed below
1. C=CCSc1nc2ccccc2c(=O)n1Cc1ccco1
2. Cc1cc(Cl)ccc1NC(=O)CCCC(=O)C1CCCC1=O (stereo not drawn)
3. CN1CN(c2ccccc2)C2(CCN(Cc3nc4ccccc4s3)CC2)C1=O
4. CC1(C)C2CC3C4CC5(Nc6ccccc6C5N41)[C@]3(C)CC2=O (stereo partly drawn)

64.1 µM
> 100 µM
18.8 µM
> 50 µM

Give the value of GI50 reported for the following: O=C(CC1(O)C(=O)Nc2ccccc21)c1ccc2ccccc2c1 (stereo not drawn)
> 100 µM

###

Test system: SF-295
PROTOCOL TEXT: NCI tumour cell line growth inhibition, 48 h
Active and inactive are the calls of the source. Rule as the data show it: active = GI50 up to about 1.1 µM and inactive = higher.
Respond only with the outcome that fits, drawn from active, inactive

Example entries and their recorded answers appear below.
MOLECULE: Nc1nc(Cl)c(/C=N\O)c(NCC2(CO)CC(=O)C2)n1
CLASSIFICATION: inactive

MOLECULE: C(=N\c1ccc(-c2nc3ccccc3[nH]2)cc1)/c1cccs1
CLASSIFICATION: inactive

MOLECULE: Clc1ccc(CCn2cncn2)cc1
CLASSIFICATION: inactive

MOLECULE: O=C(/C=C/c1ccccc1O)/C=C/c1ccccc1O
CLASSIFICATION: inactive

MOLECULE: COC(=O)/C=C/c1ccc2c(c1)CCC2
CLASSIFICATION: inactive

MOLECULE: Cc1ccnc(NC(=S)Nc2ccccc2Cl)c1
CLASSIFICATION: inactive

MOLECULE: COc1cccc(C=C2N=C(C)N(n3c(-c4ccccc4)nc4ccccc4c3=O)C2=O)c1
CLASSIFICATION: inactive

MOLECULE: c1ccc2c(c1)Nc1nc3nonc3nc1N2
CLASSIFICATION: inactive

Tell me the assay call for C/C(=N\NC(=N)N)C(CN1CCCCC1)C(c1ccccc1)c1c(O)c2ccccc2oc1=O (configuration not stated) please.
inactive

Identify the outcome logged in this assay for the molecule shown: "COc1ccc(C(=O)N=C2N(c3ccccc3)C(=N/c3ccccc3)/C(=N\c3ccccc3)N2c2ccccc2)cc1"
inactive

Record request — test call for OC1c2ccccc2C2(O)C1C(c1ccccc1)C(c1ccccc1)C2(O)c1ccccc1 (configuration not stated)
inactive

Query: recorded result category for "COC(=O)c1ccc(NCc2cc(O)ccc2O)cc1O" in this test
inactive

Hi team, can someone confirm the assay call for "Nc1nc(Cl)cc(NCC2(CO)CCCCC2)n1" ?
inactive

Which outcome was entered for the molecule "NS(=O)(=O)c1ccc(/N=N/c2cc3ccccc3c(C(=O)O)c2O)cc1" in this test?
inactive

Could you check what this test reported for O=S(=O)(c1ccccc1)C1(C2(S(=O)(=O)c3ccccc3)CCN=N2)CCN=N1 (configuration not stated) ?
inactive

Could you check what this test reported for "COC(=O)CCCC1(CCCC(=O)OC)CCCCCCCCC(CCCC(=O)OC)(CCCC(=O)OC)C(=O)C1=O" ?
inactive

Would you mind telling me which call this test gave "CCN(CC)C(=O)N[C@@H](CC(C)C)C(=O)NC" ?
inactive

Field: outcome | Entry: O=C(Nc1ccccc1)N1CC(CN2CCN(c3ccccc3)CC2)OC1=O (configuration not stated)
inactive

Name the outcome recorded for COC1=C2CC(C)CC(OC)C(O)C(C)/C=C(\C)C(OC(N)=O)C(OC)/C=C\C=C(/C)C(=O)NC(=C(/C=N/N3CCCCC3)C1=O)C2=O (configuration not stated) in the assay.
inactive

Short answer needed: outcome of this test for "Cc1nc2cc(/N=N/c3c(C)noc3C)ccc2[nH]1" ?
inactive

Which outcome was entered for the molecule COc1ccc2ccccc2c1C1NC(=O)c2ccccc2N1 (configuration not stated) in this test?
active

Which outcome did this test record for the molecule Cc1ccccc1OC(C)C(=O)NN1C(=O)CSC1c1ccc(Cl)cc1 (configuration not stated) ?
inactive
